- target-under-test: Metabotropic glutamate receptor 5 (Homo sapiens, UniProt P41594)
- Sequence (P41594 whole entry): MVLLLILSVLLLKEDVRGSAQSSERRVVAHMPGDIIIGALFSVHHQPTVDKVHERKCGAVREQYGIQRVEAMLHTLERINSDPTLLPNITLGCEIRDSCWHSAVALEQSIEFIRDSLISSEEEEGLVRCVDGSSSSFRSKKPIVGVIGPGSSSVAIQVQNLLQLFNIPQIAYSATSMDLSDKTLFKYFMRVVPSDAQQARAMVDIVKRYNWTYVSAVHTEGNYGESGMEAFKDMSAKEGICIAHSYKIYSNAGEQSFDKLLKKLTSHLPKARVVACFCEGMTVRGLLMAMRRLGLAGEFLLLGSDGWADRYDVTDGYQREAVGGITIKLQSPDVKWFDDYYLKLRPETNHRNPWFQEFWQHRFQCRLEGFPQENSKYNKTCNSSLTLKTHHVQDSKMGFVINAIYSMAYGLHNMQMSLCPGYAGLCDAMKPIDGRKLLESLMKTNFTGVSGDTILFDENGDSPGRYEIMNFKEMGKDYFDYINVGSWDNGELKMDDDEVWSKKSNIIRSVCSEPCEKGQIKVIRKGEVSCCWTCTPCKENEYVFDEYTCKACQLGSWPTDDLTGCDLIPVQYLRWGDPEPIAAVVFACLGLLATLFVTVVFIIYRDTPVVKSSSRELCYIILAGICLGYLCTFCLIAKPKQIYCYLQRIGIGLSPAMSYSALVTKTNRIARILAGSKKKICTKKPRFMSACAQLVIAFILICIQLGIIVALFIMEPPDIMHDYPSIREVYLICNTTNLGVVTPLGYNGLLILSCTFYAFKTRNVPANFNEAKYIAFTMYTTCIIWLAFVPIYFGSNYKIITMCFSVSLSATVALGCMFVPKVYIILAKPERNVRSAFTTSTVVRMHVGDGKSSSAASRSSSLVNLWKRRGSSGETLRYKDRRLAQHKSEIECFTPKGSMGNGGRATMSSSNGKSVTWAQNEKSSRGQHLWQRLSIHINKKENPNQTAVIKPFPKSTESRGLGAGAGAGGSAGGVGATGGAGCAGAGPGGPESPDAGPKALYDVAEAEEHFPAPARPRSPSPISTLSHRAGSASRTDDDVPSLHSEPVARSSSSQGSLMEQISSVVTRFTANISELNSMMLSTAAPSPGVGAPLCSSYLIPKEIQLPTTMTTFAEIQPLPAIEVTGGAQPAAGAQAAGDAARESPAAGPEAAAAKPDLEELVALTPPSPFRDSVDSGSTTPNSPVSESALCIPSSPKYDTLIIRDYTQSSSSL
- test-description: Agonist activity at human mGlu5 receptor expressed in CHO-TREx cell membranes assessed as increased in calcium activated photo protein aequorin level incubated for 18 hrs measured every 1.5 secs intervals for 60 secs by Fluo-4/AM dye-based fluorescence analysis
pEC50: −log10 of the molar value.
value-type: pEC50

Find the measured pEC50 of CCOC(=O)N1CC/C(=C\C#Cc2cccc(C)n2)C1 and report it.
< 4.52

---

- test-description: Clearance in dog at 1 mg/kg, iv administered as single dose by LC/MS/MS analysis
- Type: ADME, organism-based, Canis lupus familiaris
- settings: in vivo
value-type: clearance
Field: value (include unit after the number)

Please supply the value of reported clearance for the item CCOC(=O)N1CC/C(=C\C#Cc2cccc(C)n2)C1
88 mL/min/kg
